Values from patent US20240174716A1

target: T1, TfR protein (Acro Biosystems. Cat. No. CD1-H5243) (UniProt P02786 89-760); experiment: FOPPR (fiber optic particle plasmon resonance); peptide coupled to chip, TfR protein loaded at 0.5-1000 ng/mL
T1 construct: Bought recombinant protein; also called TfR1; transferrin receptor
T1 sequence (P02786 89-760 limits assumed): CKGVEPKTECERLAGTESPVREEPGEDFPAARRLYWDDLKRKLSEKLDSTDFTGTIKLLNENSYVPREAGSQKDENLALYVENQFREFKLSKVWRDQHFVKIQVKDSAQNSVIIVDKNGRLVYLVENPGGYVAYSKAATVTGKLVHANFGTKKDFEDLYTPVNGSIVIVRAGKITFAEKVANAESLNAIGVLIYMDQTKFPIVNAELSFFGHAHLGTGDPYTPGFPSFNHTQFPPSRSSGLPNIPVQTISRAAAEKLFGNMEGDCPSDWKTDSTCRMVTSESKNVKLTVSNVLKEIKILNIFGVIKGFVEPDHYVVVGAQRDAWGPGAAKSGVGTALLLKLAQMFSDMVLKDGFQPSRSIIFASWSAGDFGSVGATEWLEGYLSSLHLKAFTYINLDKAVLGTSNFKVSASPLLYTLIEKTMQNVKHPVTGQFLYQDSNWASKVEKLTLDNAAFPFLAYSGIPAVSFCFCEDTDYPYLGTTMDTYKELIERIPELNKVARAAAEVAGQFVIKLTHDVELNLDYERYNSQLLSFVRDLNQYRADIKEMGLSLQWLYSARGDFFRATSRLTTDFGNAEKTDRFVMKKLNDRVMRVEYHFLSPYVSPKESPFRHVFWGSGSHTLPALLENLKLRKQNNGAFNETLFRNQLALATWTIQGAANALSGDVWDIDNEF
pKd: −log10 of the molar value.
Tag: True if measured pKd is not below 8, False if it is.

Exercise: Given the entry DISVLCKEYD (10-mer; also called transporter peptide) [PT-027] , answer whether its pKd meets or surpasses 8.
Solution: True

Exercise: Again, but for DISVLMKEYD (10-mer; also called transporter peptide) [PT-001]
Solution: False

Exercise: Next record, please: DISVLMKEYQ (10-mer; also called transporter peptide) [PT-034]
Solution: False

Exercise: Next binder: DILVLMKEYD (10-mer; also called transporter peptide) [PT-011]
Solution: True
